# System Under Test: Muscarinic acetylcholine receptor M5 (Homo sapiens) (UniProt P08912)
# Sequence (P08912 whole entry, looked up): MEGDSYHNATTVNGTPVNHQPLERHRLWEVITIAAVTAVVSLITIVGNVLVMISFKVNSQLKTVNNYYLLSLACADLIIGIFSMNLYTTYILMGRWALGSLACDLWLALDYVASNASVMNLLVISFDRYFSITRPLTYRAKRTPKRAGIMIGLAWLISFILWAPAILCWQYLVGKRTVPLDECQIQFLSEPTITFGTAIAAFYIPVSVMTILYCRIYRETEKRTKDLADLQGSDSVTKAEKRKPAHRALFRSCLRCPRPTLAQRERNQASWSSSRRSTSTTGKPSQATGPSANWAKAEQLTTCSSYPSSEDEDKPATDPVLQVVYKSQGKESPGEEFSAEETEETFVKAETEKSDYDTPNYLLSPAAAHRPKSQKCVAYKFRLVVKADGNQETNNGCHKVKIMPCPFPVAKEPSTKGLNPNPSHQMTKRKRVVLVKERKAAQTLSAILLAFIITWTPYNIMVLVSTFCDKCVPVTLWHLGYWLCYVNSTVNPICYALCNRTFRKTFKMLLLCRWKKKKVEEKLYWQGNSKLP
# Measurement Protocol: human M5 muscarinic receptor positive allosteric modulators, primary screen, CHO-K1 cells, Fluo-8 calcium fluorescence (AID 624038)
# Details: CHO-K1 hM5, Fluo-8 calcium, ACh EC20 PAM; at 3 µM; hits give high values; 0% = ACh EC20, 100% = ACh EC100
The campaign covered roughly 360,000 compounds. About 1,100 (0.31%) were called active. The list comes from a sample in which actives are over-represented; it also holds close analogues and randomly drawn compounds.
Would you kindly list activation for each of these molecules?
Numbers only, in %.

1) CCCCn1nc(C(=O)OCC(=O)Nc2sccc2C(N)=O)c2ccccc2c1=O
-5.8
2) CCOc1ccc(S(=O)(=O)N2CCCC(C(=O)N3CCC(C(N)=O)CC3)C2)cc1Cl (centres undefined)
5.31
3) Cc1ccc(NC(=O)CSc2nnc(CNC(=O)c3ccccc3F)o2)cc1
0.28
4) O=C(Nc1cc(S(=O)(=O)N2CCOCC2)ccc1OCC(F)(F)F)c1ccc(N2CCCC2=O)cc1
-1.35
5) Cc1ccc(NC(=O)CSc2nnc(CNC(=O)c3ccccc3F)o2)cc1Cl
-1.76
6) CN(CC(=O)Nc1c(Cl)cccc1Cl)C(=O)CNC(=O)C1CCCCC1
7.43

Field: activation. Fill in for each record below.
1. CSc1ccc(C(=O)C2CCCN(C(=O)c3ccc(C)nc3)C2)cc1 (centres undefined)
2. Cc1cc(C)cc(NC(=O)N2CCC(NC(=O)c3ccc(F)cc3)CC2)c1
3. CCOC(=O)N1CCC(NC(=O)C(C)n2c3ccccc3c3cnn(C)c(=O)c32)CC1 (centres undefined)

Reply text:
[-1.27, 18.7, -5.66]
